Test system: galium (catchweed bedstraw, Galium aparine)
Assay: Test C postemergence, visual plant response rating
Type: in vivo
Details: Test C, postemergence, 125 g ai/ha
For each record, write down the corresponding Galium plant response rating (0 to 100 scale).
Numbers only.

                                   molecule                             tested_system  obs_value
0  CO/N=C(\c1cc(F)cc(C)c1F)c1c(O)c(C)nn(C)c1=O  galium (catchweed bedstraw, Galium aparine)         90
1  CON=C(c1ccc(F)c(Br)c1)c1c(O)c(C)nn(C)c1=O [Compound 177]  galium (catchweed bedstraw, Galium aparine)         80

Give Galium plant response rating (0 to 100 scale) for each of the items listed below.
1. C#CCO/N=C(\c1cc(Cl)cc(Br)c1)c1c(O)c(C)nn(C)c1=O
2. C#CCO/N=C(/c1ccc(F)c(Br)c1)c1c(O)c(C)nn(C)c1=O

output:
1. 100
2. 90

Hi there! I need Galium plant response rating (0 to 100 scale) for each item below, if you can.
1. CON=C(c1cc(Cl)cc(Cl)c1Cl)c1c(O)c(C)nn(C)c1=O [Compound 214]
2. C#CCO/N=C(/c1cc(Cl)cc(Br)c1)c1c(O)c(C)nn(C)c1=O

output:
90
100

###

Test system: ragweed (common ragweed, Ambrosia artemisiifolia)
Assay: Test C postemergence, visual plant response rating
Type: in vivo
Settings: Postemergence, 31 g ai/ha
observable: Ragweed plant response rating (0 to 100 scale)
Numbers only.

Some solved entries appear below for comparison.
>>> print(df.to_string())
                                   compound  obs_value
0  CON=C(c1cc(Cl)cc(Cl)c1)c1c(O)c(C)nn(C)c1=O [Compound 188]         60
1  C#CCO/N=C(/c1ccc(F)c(Br)c1)c1c(O)c(C)nn(C)c1=O         30
2  CO/N=C(\c1c(O)c(C)nn(C)c1=O)c1cccc2cc(Cl)ccc12         30
3  C=CCO/N=C(\c1c(O)c(C)nn(C)c1=O)c1cccc2cc(Cl)ccc12         60

// below: Ragweed plant response rating (0 to 100 scale) requested for another compound
input: Recorded Ragweed plant response rating (0 to 100 scale) of `C#CCO/N=C(\c1cccc(/C=C/Cl)c1)c1c(O)c(C)nn(C)c1=O` , please.
output: 30

###

System: kochia (Kochia scoparia)
Experiment: Test A postemergence, visual plant response rating
Type: in vivo
Details: Postemergence, 125 g ai/ha; 0 to 100 scale (0 no effect, 100 complete control)
So I've got a bunch of compounds here, and I need their Kochia plant response rating values.
Give bare numbers.

In [3]: df
Out[3]:
                               compound                    observable  obs_value
0  CO/N=C(\c1sccc1C)c1c(O)c(C)nn(C)c1=O  Kochia plant response rating         20

Batch lookup, Kochia plant response rating per entry.
1. CO/N=C(\c1ccc(F)cc1C)c1c(O)c(C)nn(C)c1=O
2. CON=C(c1cc(C)cs1)c1c(O)c(C)nn(C)c1=O (mixture of isomers)

output:
20
20

###

Test system: pigweed (Amaranthus retroflexus)
Test: Test C preemergence, visual plant response rating
Assay type: in vivo
Settings: Test C, 31 g ai/ha, 0 is no effect, 100 is complete control
Description: […]
observable: Pigweed plant response rating (0 to 100 scale)

// solved cases for Pigweed plant response rating (0 to 100 scale) follow
In [3]: df
Out[3]:
                              sample_smiles  obs_value
0  CO/N=C(/c1c(O)cnn(C)c1=O)c1ccc(F)c2ccccc12         10
1  CO/N=C(\c1cc(Cl)c(F)c(Cl)c1)c1c(O)c(C)nn(C)c1=O         10

In the following, a different compound is considered.
input: # get_value(readout='Pigweed plant response rating (0 to 100 scale)', item= `C#CCO/N=C(\c1ccc(F)c(Cl)c1)c1c(O)c(C)nn(C)c1=O` )
output: 10
